biological target: Cytochrome P450 2E1 (Rattus norvegicus, UniProt P05182)
Sequence (P05182 whole entry): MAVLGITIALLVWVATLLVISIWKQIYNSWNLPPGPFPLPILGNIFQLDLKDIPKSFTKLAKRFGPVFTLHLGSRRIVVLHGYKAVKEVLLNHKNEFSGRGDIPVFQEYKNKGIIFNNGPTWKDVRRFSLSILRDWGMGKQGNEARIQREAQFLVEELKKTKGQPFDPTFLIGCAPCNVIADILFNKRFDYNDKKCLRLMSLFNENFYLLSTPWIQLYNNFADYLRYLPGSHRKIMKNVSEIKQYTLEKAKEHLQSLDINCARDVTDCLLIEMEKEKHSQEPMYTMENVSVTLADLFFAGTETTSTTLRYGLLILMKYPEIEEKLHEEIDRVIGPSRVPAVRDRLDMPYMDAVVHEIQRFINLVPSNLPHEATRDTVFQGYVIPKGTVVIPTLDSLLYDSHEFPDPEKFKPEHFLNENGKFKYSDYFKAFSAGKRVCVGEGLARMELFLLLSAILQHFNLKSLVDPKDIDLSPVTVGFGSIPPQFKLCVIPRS
pIC50: −log10 of the molar value.
# pIC50 >= 5 gives YES, anything below gives NO

# compound-string, class
rows = [
    ("Clc1ccc(CCC2(Cn3ccnc3)OCCO2)cc1", "YES"),
    ("C[C@@H]1CO[C@@](CCc2ccc(Cl)cc2)(Cn2ccnc2)O1", "YES"),
    ("C[C@H]1CO[C@](CCc2ccc(Cl)cc2)(Cn2ccnc2)O1", "NO"),
    ("C[C@H]1CO[C@@](CCc2ccc(Cl)cc2)(Cn2ccnc2)O1", "YES"),
    ("C[C@@H]1CO[C@](CCc2ccc(Cl)cc2)(Cn2ccnc2)O1", "NO"),
]

---

Target: Heme oxygenase 2 (Rattus norvegicus, UniProt P23711)
Sequence (P23711 whole entry): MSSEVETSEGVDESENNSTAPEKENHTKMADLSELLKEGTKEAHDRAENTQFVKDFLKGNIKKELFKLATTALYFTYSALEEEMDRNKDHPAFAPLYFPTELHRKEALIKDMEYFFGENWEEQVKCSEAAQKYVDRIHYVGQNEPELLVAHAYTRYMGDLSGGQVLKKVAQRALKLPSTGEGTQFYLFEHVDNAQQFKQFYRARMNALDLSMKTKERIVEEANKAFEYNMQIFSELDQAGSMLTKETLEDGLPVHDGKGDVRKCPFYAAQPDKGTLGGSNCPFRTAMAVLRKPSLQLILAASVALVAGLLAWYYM
Test: Inhibition of Sprague-Dawley rat brain HO2
measured-attribute: IC50

# compound-string, system, measured-attribute, observed-result
data = [
    ("Clc1ccc(CCC2(Cn3ccnc3)OCCO2)cc1", "Heme oxygenase 2 (Rattus norvegicus, UniProt P23711)", "IC50", "> 100 µM"),
    ("C[C@H]1CO[C@](CCc2ccc(Cl)cc2)(Cn2ccnc2)O1", "Heme oxygenase 2 (Rattus norvegicus, UniProt P23711)", "IC50", "> 100 µM"),
    ("C[C@@H]1CO[C@](CCc2ccc(Cl)cc2)(Cn2ccnc2)O1", "Heme oxygenase 2 (Rattus norvegicus, UniProt P23711)", "IC50", "> 100 µM"),
]

---

assay: Inhibition of rat liver CYP3A1/3A2; format: ADME, tissue-based
// boundary case: IC50 equal to 6 µM maps to Not met; strictly smaller maps to Met

# compound-string, class
measured = [
    ("C[C@@H]1CO[C@](CCc2ccc(Cl)cc2)(Cn2ccnc2)O1", "Not met"),
    ("C[C@@H]1CO[C@@](CCc2ccc(Cl)cc2)(Cn2ccnc2)O1", "Met"),
    ("C[C@H]1CO[C@](CCc2ccc(Cl)cc2)(Cn2ccnc2)O1", "Not met"),
    ("C[C@H]1CO[C@@](CCc2ccc(Cl)cc2)(Cn2ccnc2)O1", "Not met"),
]
